Where these numbers come from: ChEMBL document CHEMBL3593236

Carbonic anhydrase (Methanosarcina thermophila) measurements of Ki, listed per entry.
Sequence (P40881 whole entry): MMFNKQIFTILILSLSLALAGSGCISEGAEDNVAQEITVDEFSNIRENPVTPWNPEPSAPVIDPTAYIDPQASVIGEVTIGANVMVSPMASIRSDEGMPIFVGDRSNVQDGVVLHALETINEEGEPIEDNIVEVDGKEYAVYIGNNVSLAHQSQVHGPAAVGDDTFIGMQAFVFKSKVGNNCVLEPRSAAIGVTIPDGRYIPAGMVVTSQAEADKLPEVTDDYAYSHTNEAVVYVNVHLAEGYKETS
READOUT TYPE: Ki (mM)

INSERT INTO assay_data (compound, readout_type, number) VALUES
  ('N#C[S-].[Na+] [THIOCYANATE SODIUM]', 'Ki', 7),
  ('[Br-].[Na+] [SODIUM BROMIDE]', 'Ki', 160);
